# Test Name: Pharmacokinetic test in rats
# Format: in vivo, SD rats
# Cond: male, SD, rat, iv, plasma, i.v. 2.5 mg/kg, read-out: Vdss
Reported Endpoint: Vd (L/kg)

A selection of reference data follows.
Molecule	Vd [L/kg]
Cc1nc(N2CC3C(C2)C3C2CN(C3CC(C)(C(=O)O)C3)CCO2)nc(NC(C)c2ccc(Cl)cc2Cl)c1Cl (single isomer, unassigned) [Compound 78 isomer 3]	2.07
Cc1nc(N2CCC(C3CN(C4CC(C)(C(=O)O)C4)CCO3)CC2)nc(NC(C)c2ccc(Cl)cc2Cl)c1Cl (single isomer, unassigned) [Compound 73 isomer 3]	1.55

a. Cc1nc(N2CC(F)(C3CN(C4CC(C)(C(=O)O)C4)CCO3)C2)nc(N[C@H](C)c2ccc(Cl)cc2Cl)c1Cl (single isomer, unassigned) [Compound 64 isomer 3]
b. C[C@@H](Nc1cc(N2CC(C3CN(C4CC(C)(C(=O)O)C4)CCO3)C2)ccc1Cl)c1ccc(Cl)cc1Cl (single isomer, unassigned) [Compound 83 isomer 1]
Qu. Between a and b , which one has the lower reported Vd value? Field: selected label. Fill in the label of the entry you choose.
Ans. a
(a: 1.38 L/kg, b: 2.25 L/kg)
